Data provenance is PubChem BioAssay (NCI).

ASSAY EXPLANATION: NCI Yeast Anticancer Drug Screen. Data for the rad52 strain (AID 147);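 note: 0% = growth of vehicle-treated control cultures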
CONDITION CONTEXT: S. cerevisiae rad52 mutant growth inhibition; at 1.2 µM; hits give high values
About 79,000 compounds went through this panel and 15% of them were active in at least one assay; those are over-represented in the sample as a whole.
MEASURE NAME: growth inhibition (%)

[[record]]
compound = "CCN(CC)C(=S)N/N=C(/C)c1cccc(/C(C)=N\\NC(=S)N(CC)CC)n1"
reading = -24

[[record]]
compound = "O=C1NC(=O)C2C3C=CC(C3)C12 (stereo unspecified)"
reading = -7

[[record]]
compound = "O=C(NCCCCNCCCNC(=O)c1cc(-c2ccccc2)nc2ccccc12)c1cc(-c2ccccc2)nc2ccccc12"
reading = -1

[[record]]
compound = "COC(=O)c1ccc(CCC2=CC(=O)C(Br)=CC2=O)cc1"
reading = 17

[[record]]
compound = "BrCc1cccc2ccc3cccc(CBr)c3c12"
reading = -3

[[record]]
compound = "c1ccc2c(c1)sc1cc3ccncc3cc12"
reading = -2

[[record]]
compound = "CSC(=S)Nc1cc(C)ccn1"
reading = -5

[[record]]
compound = "COc1cc(C2c3cc4c(cc3OC(NNc3ccccc3)C2C)OCO4)cc(OC)c1OC (stereo unspecified)"
reading = 36

[[record]]
compound = "CC1(C)C(=O)OC(n2cc(F)c(=O)[nH]c2=O)C1=O (stereo unspecified)"
reading = -32

[[record]]
compound = "CCC(=O)c1cccc2ccccc12"
reading = 1

[[record]]
compound = "CSc1nc(=S)[nH]c2c1c(C)nn2-c1ccccc1"
reading = 11

[[record]]
compound = "Fc1ccc(NC(=S)SCc2ccc3c(c2)OCO3)cc1F"
reading = 15

[[record]]
compound = "O=C(c1ccc(Cl)cc1Cl)C(Cl)Cl"
reading = 4

[[record]]
compound = "CC(O)C(O)C(O)C(/C=N\\Nc1ccccc1)=N/Nc1ccccc1 (stereo unspecified)"
reading = 5

[[record]]
compound = "COc1cc2ccc(/C=C\\[N+](=O)[O-])cc2cc1OC"
reading = 1

[[record]]
compound = "O=C1c2ccccc2C(=O)c2cc(CBr)ccc21"
reading = 5

